Give measured EC50 for each item. Keep answers brief.
Tested on: Influenza A virus
Assay: Antiviral activity against Influenza A/California/04/2009 (H1N1)pdm09 infected in MDCK cells assessed as protection against virus-induced cell death by CellTiter-Glo assay
Type: functional, organism-based
Details: A/California/04/2009(H1N1) pdm09, MDCK
Answers are plain numbers, in nM.

Please review the following examples before continuing.
| chemical string | attribute measured | observed value |
| --- | --- | --- |
| O=C1c2c(O)c(=O)ccn2N([C@@H]2c3ccccc3SCc3c2ccc(F)c3F)[C@@H]2COCCN12 | EC50 | 0.9 |
| O=C1c2c(O)c(=O)ccn2N(C(c2ccccc2)c2ccccc2)[C@@H]2COCCN12 | EC50 | 18.5 |
| CSc1ccccc1[C@H](c1ccc(F)c(F)c1)N1[C@@H]2COCCN2C(=O)c2c(O)c(=O)ccn21 | EC50 | 32.1 |
| CSc1ccccc1[C@@H](c1ccc(F)c(F)c1)N1[C@@H]2COCCN2C(=O)c2c(O)c(=O)ccn21 | EC50 | 146 |
| O=C1c2c(O)c(=O)ccn2N([C@@H](c2ccccc2)c2ccc(F)c(F)c2)[C@@H]2COCCN12 | EC50 | 22.5 |
| O=C1c2c(O)c(=O)ccn2N(C(c2ccc(F)c(F)c2)c2ccc(F)c(F)c2)[C@@H]2COCCN12 | EC50 | 22.6 |
| O=C1c2c(O)c(=O)ccn2N([C@H](c2ccccc2)c2ccc(F)c(F)c2)[C@@H]2COCCN12 | EC50 | 15.4 |

Pending compound:
// lookup EC50 | system=Influenza A virus | key= `O=C1c2c(O)c(=O)ccn2N(C(c2ccc(F)cc2)c2ccc(F)cc2)[C@@H]2COCCN12`
13.4

----------
Give measured remaining at 4 h, 1 µM for each item. Keep answers brief.
Assay: Stability in human liver S9 fraction assessed as parent compound remaining at 1 uM measured after 4 hrs by LC-MS/MS analysis
Type: ADME, subcellular
Settings: read-out: Stability
Answer with the value and then the unit.

Please review the following examples before continuing.
| chemical string | remaining at 4 h, 1 µM |
| --- | --- |
| O=C1c2c(O)c(=O)ccn2N([C@@H](c2ccccc2)c2ccc(F)c(F)c2)[C@@H]2COCCN12 | 113% |
| O=c1ccc2ccc(O)cc2o1 | 0.39% |
| O=C1c2c(O)c(=O)ccn2N(C(c2ccccc2)c2ccccc2)[C@@H]2COCCN12 | 82.8% |
| O=C1c2c(O)c(=O)ccn2N([C@H](c2ccccc2)c2ccc(F)c(F)c2)[C@@H]2COCCN12 | 104% |
| O=C1c2c(O)c(=O)ccn2N(C(c2ccc(F)cc2)c2ccc(F)cc2)[C@@H]2COCCN12 | 97% |

Pending compound:
// returns reported remaining at 4 h, 1 µM for input `O=C1c2c(O)c(=O)ccn2N([C@@H]2c3ccccc3SCc3c2ccc(F)c3F)[C@@H]2COCCN12`
93.5%

----------
Assay: AUClast in CD1 mouse lung at 10 mg/kg, po administered as single dose by LC-MS/MS analysis
Assay type: ADME, organism-based
Conditions: in vivo
attribute measured: AUClast (ng·h/g)
Answers are plain numbers, in ng·h/g.

Need AUClast for each of these molecules.
1. O=C1c2c(O)c(=O)ccn2N([C@H](c2ccccc2)c2ccc(F)c(F)c2)[C@@H]2COCCN12
2. O=C1c2c(O)c(=O)ccn2N(C(c2ccccc2)c2ccccc2)[C@@H]2COCCN12
3. O=C1c2c(O)c(=O)ccn2N(C(c2ccc(F)cc2)c2ccc(F)cc2)[C@@H]2COCCN12
4. O=C1c2c(O)c(=O)ccn2N([C@@H](c2ccccc2)c2ccc(F)c(F)c2)[C@@H]2COCCN12

1: 384; 2: 7477; 3: 4490; 4: 735
